Biological target: T1, GFP-9S library array, motif 4 ND D124W (synthetic construct, D124W)
T1 chain: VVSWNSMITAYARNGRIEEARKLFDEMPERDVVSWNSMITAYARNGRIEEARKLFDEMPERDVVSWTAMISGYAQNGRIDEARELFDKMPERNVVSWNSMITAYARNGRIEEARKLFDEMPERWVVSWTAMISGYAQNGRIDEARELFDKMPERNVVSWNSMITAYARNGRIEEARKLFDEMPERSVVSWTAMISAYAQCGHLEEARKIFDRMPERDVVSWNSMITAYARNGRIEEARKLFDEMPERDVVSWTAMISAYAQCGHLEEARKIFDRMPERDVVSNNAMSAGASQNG
Assay: high-throughput RNA pulldown from lysate on Ni-NTA beads; HRP: 50 mM Tris pH 8, 150 mM NaCl, 1 mM beta-mercaptoethanol, 50 ug/ml BSA, 3 ug/ml yeast RNA, 0.5% heparin; ITC and FP: Tris pH 8, 200 mM KCl, 5% glycerol; MST: 50 mM Tris pH 8, 200 mM NaCl, 1 mM DTT, BSA, heparin, 0.05% Tween 20
Details: tags: N-terminal His-eGFP; label: 5' IRDye 800CW
Catalogue of pKd readings, one per entry.
Please express pKd as -log10 of the molar concentration.

- AUUAUACGUGA (ssRNA) [IR-rpoA-U]: 6.68

Attention now turns to another entry.
Q. Fill in the blank: the reported pKd of AUUAAACGUGA (ssRNA) [IR-rpoA-A] is ____.
A. 6.79

These measurements were taken from paper PMC8809517.
